assay-overview: Stability testing against formation of the impurities atorvastatin-epoxy-dihydroxy (AED) and epoxydiketone on storage
Format: physicochemical
settings: 6 m/25° C./60% RH (Test Sample H)
measurement-type: ATV-epoxy-dihydroxy (AED)

Notebook: CC(C)c1c(C(=O)Nc2ccccc2)c(-c2ccccc2)c(-c2ccc(F)cc2)n1CC[C@@H](O)C[C@@H](O)CC(=O)O (relative stereo) , ATV-epoxy-dihydroxy (AED) read as < 0.01 % (w/w)
